system: 695427-040-R-J1-PDC complex spheroids, viability percent T/C; test: Anticancer human tumor 695427-040-R-J1-PDC patient-derived colon adenocarcinoma cell line growth inhibition [GQUAD]; conditions: second compound 0.316 µM; first compound 1 µM; hits give low values
Output 1 (yes) for records whose viability, T/C is lower than 70%, 0 (no) for records at or above 70%.

Q: API: query returns whether the compound falls strictly under 70% in viability, T/C. Query: Nc1ccn(C2OC(CO)C(O)C2(F)F)c(=O)n1 (stereo not given) + Cc1[nH]c2ccc(F)cc2c1-c1nc2c3cccnc3c3ncccc3c2[nH]1
Ans: 1 (yes)

Q: Given the entry COc1cccc2c1C(=O)c1c(O)c3c(c(O)c1C2=O)CC(O)(C(=O)CO)CC3OC1CC(N)C(O)C(C)O1 (stereo not given) + CN(C)c1ccc(Nc2c3ccc(NC(=O)CCN4CCCC4)cc3nc3cc(NC(=O)CCN4CCCC4)ccc23)cc1 , would its reported viability, T/C be below 70%?
Ans: 0 (no)

Q: Consider COc1cccc2c1C(=O)c1c(O)c3c(c(O)c1C2=O)CC(O)(C(=O)CO)CC3OC1CC(N)C(O)C(C)O1 (stereo not given) + Cc1cnc(CNC(=O)c2c(=O)c3ccc(N4CCCN(C)CC4)nc3n3c2sc2ccccc23)cn1 . Does its viability, T/C lie strictly below 70%?
Ans: 1 (yes)

Q: Criterion: viability, T/C strictly below 70%. Is it met by Cc1cccc(N(C)C(=O)C2C(O)CCN2c2nc(C)cc(C(F)(F)F)c2C#N)c1 (stereo not given) + CN(C)c1ccc(Nc2c3ccc(NC(=O)CCN4CCCC4)cc3nc3cc(NC(=O)CCN4CCCC4)ccc23)cc1 ?
Ans: 0 (no)

====

tested on: 695427-040-R-J1-PDC complex spheroids, viability percent T/C; test: Anticancer human tumor 695427-040-R-J1-PDC cell line growth inhibition [GQUAD]; conditions: second compound 0.316 µM; first compound 10 µM; hits give low values;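 further: spheroids exposed to compounds for seven days before readout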
Exercise: for every item that follows, state its recorded viability, T/C.
Please respond with the number in % and leave the unit unwritten.

Observed viability, T/C, 695427-040-R-J1-PDC complex spheroids, viability percent T/C, Cc1cccc(N(C)C(=O)C2C(O)CCN2c2nc(C)cc(C(F)(F)F)c2C#N)c1 (stereo not given) + Cc1[nH]c2ccc(F)cc2c1-c1nc2c3cccnc3c3ncccc3c2[nH]1 : 80.5

Readout viability, T/C for CCCS(=O)(=O)Nc1ccc(F)c(C(=O)c2c[nH]c3ncc(-c4ccc(Cl)cc4)cc23)c1F + Cc1cnc(CNC(=O)c2c(=O)c3ccc(N4CCCN(C)CC4)nc3n3c2sc2ccccc23)cn1 , test system 695427-040-R-J1-PDC complex spheroids, viability percent T/C, was 55.1

Measured viability, T/C (695427-040-R-J1-PDC complex spheroids, viability percent T/C), entry CC1COCCN1c1cc(C2(S(C)(=N)=O)CC2)nc(-c2ccnc3[nH]ccc23)n1 (stereo not given) + CN(C)c1ccc(Nc2c3ccc(NC(=O)CCN4CCCC4)cc3nc3cc(NC(=O)CCN4CCCC4)ccc23)cc1 : 69.9

Form: item CC(=O)O[C@H]1C(=O)[C@@]2(C)[C@H]([C@H](OC(=O)c3ccccc3)[C@]3(O)C[C@H](OC(=O)[C@H](O)[C@@H](NC(=O)c4ccccc4)c4ccccc4)C(C)=C1C3(C)C)[C@]1(OC(C)=O)CO[C@@H]1C[C@@H]2O + CN(C)c1ccc(Nc2c3ccc(NC(=O)CCN4CCCC4)cc3nc3cc(NC(=O)CCN4CCCC4)ccc23)cc1 ; test system 695427-040-R-J1-PDC complex spheroids, viability percent T/C; viability, T/C: 70.1

Tested system 695427-040-R-J1-PDC complex spheroids, viability percent T/C; viability, T/C recorded for O=c1[nH]cc(F)c(=O)[nH]1 + Cc1cnc(CNC(=O)c2c(=O)c3ccc(N4CCCN(C)CC4)nc3n3c2sc2ccccc23)cn1 was 85.8
